Test system: johnsongrass (Sorghum halepense)
Assay Explanation: Test C pre-/postemergence: johnsongrass
Format: in vivo
Assay Setup: Postemergence, 62 g ai/ha; scale 0 to 100 (0 no effect, 100 complete control)
Give Plant response rating, Johnsongrass for every item shown.
Answers are plain numbers.

I'm hoping you can list Plant response rating, Johnsongrass for every molecule here, please.
1. Cc1nn(-c2ccnc(C(F)(F)F)c2)nc1Cc1ccnc(C(F)(F)F)c1
2. Cc1nn(-c2ccc(C(F)(F)F)cc2)nc1Cc1cccc(C(F)(F)F)c1
3. Cc1nn(-c2ccc(F)c(F)c2)nc1Oc1ccnc(C(F)(F)F)c1
4. Fc1ccc(-n2nc(Cc3ccnc(C(F)(F)F)c3)c(OCC(F)(F)F)n2)cc1

Given back:
1: 40; 2: 40; 3: 20; 4: 70

The measured values listed here are drawn from patent US9302999B2.
